# Method notes: in vivo
# Run parameters: male, cynomolgus monkey, iv
# Method: In order to measure the blood oxytocin concentration, blood was collected from the femoral vein with a syringe (dispensed into an EDTA-2K-containing blood collection tube) before administration and 2, 5, 10, 30, 60, 120, 240 and 480 minutes after administration (9 times in total). […] The oxytocin concentration was measured by an EIA method involving an Oxytocin Enzyme Immunoassay Kit: Extraction-Free (Peninsula Laboratories International). […]
Quantity name: level at 1 h (ng/mL)

CC[C@H](C)[C@@H]1NC(=O)[C@H](Cc2ccc(O)cc2)NC(=O)[C@@H](N)CSSC[C@@H](C(=O)N2CCC[C@H]2C(=O)N[C@@H](CC(C)C)C(=O)NCC(N)=O)NC(=O)[C@H](CC(N)=O)NC(=O)[C@H](CCC(N)=O)NC1=O = 0.11

* * *

# Method notes: Blood oxytocin concentration in monkey (EIA)
# Assay type: in vivo, cynomolgus monkey
# Run parameters: male, cynomolgus monkey, blood; 60 min; intravenous; average n=6
Quantity name: level at 1 h (ng/mL)

CC[C@H](C)[C@@H]1NC(=O)[C@H](Cc2ccc(O)cc2)NC(=O)[C@@H](N)CSSC[C@@H](C(=O)N2CCC[C@H]2C(=O)N[C@@H](CC(C)C)C(=O)NCC(N)=O)NC(=O)[C@H](CC(N)=O)NC(=O)[C@H](CCC(N)=O)NC1=O = 3.02

* * *

# Method notes: Blood oxytocin concentration in monkey (EIA)
# Format: in vivo, cynomolgus monkey
# Run parameters: male, cynomolgus monkey, blood; 2 min; intravenous; average n=6
Quantity name: level at […] (ng/mL)

CC[C@H](C)[C@@H]1NC(=O)[C@H](Cc2ccc(O)cc2)NC(=O)[C@@H](N)CSSC[C@@H](C(=O)N2CCC[C@H]2C(=O)N[C@@H](CC(C)C)C(=O)NCC(N)=O)NC(=O)[C@H](CC(N)=O)NC(=O)[C@H](CCC(N)=O)NC1=O [Comparative Example 13, oxytocin] = 206

* * *

# Method notes: Blood oxytocin concentration in monkey (EIA)
# Type: in vivo, cynomolgus monkey
# Run parameters: male, cynomolgus monkey, blood; 10 min; intravenous; average n=6
Quantity name: level at […] (ng/mL)

CC[C@H](C)[C@@H]1NC(=O)[C@H](Cc2ccc(O)cc2)NC(=O)[C@@H](N)CSSC[C@@H](C(=O)N2CCC[C@H]2C(=O)N[C@@H](CC(C)C)C(=O)NCC(N)=O)NC(=O)[C@H](CC(N)=O)NC(=O)[C@H](CCC(N)=O)NC1=O = 52.3

* * *

# Method notes: in vivo
# Run parameters: male, cynomolgus monkey, iv
Quantity name: level at 0.5 h

CC[C@H](C)[C@@H]1NC(=O)[C@H](Cc2ccc(O)cc2)NC(=O)[C@@H](N)CSSC[C@@H](C(=O)N2CCC[C@H]2C(=O)N[C@@H](CC(C)C)C(=O)NCC(N)=O)NC(=O)[C@H](CC(N)=O)NC(=O)[C@H](CCC(N)=O)NC1=O [Comparative Example 13, oxytocin] = 0.204 ng/mL

* * *

# Method notes: Blood oxytocin concentration in monkey (EIA)
# Assay type: in vivo, cynomolgus monkey
# Run parameters: male, cynomolgus monkey, blood; 120 min; intravenous; average n=6
Quantity name: level at 2 h (ng/mL)

CC[C@H](C)[C@@H]1NC(=O)[C@H](Cc2ccc(O)cc2)NC(=O)[C@@H](N)CSSC[C@@H](C(=O)N2CCC[C@H]2C(=O)N[C@@H](CC(C)C)C(=O)NCC(N)=O)NC(=O)[C@H](CC(N)=O)NC(=O)[C@H](CCC(N)=O)NC1=O = 0.18
